# measurement_notes: Cytotoxicity against human MC65 cells by MTT assay
# Assay type: cell-based
# measurement_context: read-out: TD50 (the source's name)
Binary call on CC50 with cut-off 30 µM: strictly below means class 1, and equality or higher means class 0.

Q) Is CC50 strictly under 30 µM for the entry Cc1cc2c(c(=O)o1)C=C1CC[C@H](C(C)CNCc3ccc(O)c([N+](=O)[O-])c3)C[C@@H]1O2 (mixture of isomers) ?
A) class 0

Q) Is CC50 strictly under 30 µM for the entry Cc1cc2c(c(=O)o1)C=C1CC[C@H](C(C)CNCc3ccc(O)c(Br)c3)C[C@@H]1O2 (mixture of isomers) ?
A) class 0

Q) Is CC50 strictly under 30 µM for the entry COc1cc(CNCC(C)[C@H]2CCC3=Cc4c(cc(C)oc4=O)O[C@H]3C2)ccc1O (mixture of isomers) ?
A) class 1

Q) Is CC50 strictly under 30 µM for the entry COc1ccc(CNCC(C)[C@H]2CCC3=Cc4c(cc(C)oc4=O)O[C@H]3C2)cc1O (mixture of isomers) ?
A) class 0

Q) Is CC50 strictly under 30 µM for the entry Cc1cc2c(c(=O)o1)C=C1CC[C@H](C(C)CNCc3c(O)ccc4ccccc34)C[C@@H]1O2 (mixture of isomers) ?
A) class 1

Q) Is CC50 strictly under 30 µM for the entry Cc1cc2c(c(=O)o1)C=C1CC[C@H](C(C)CNCc3ccc4cc(O)ccc4c3)C[C@@H]1O2 (mixture of isomers) ?
A) class 1

Q) Is CC50 strictly under 30 µM for the entry Cc1cc2c(c(=O)o1)C=C1CC[C@H](C(C)CNCc3ccc(O)c4ccccc34)C[C@@H]1O2 (mixture of isomers) ?
A) class 1

Q) Is CC50 strictly under 30 µM for the entry Cc1cc2c(c(=O)o1)C=C1CC[C@H](C(C)CNCc3ccc(CO)cc3)C[C@@H]1O2 (mixture of isomers) ?
A) class 0

Q) Is CC50 strictly under 30 µM for the entry Cc1cc2c(c(=O)o1)C=C1CC[C@H](C(C)CNCc3ccccc3)C[C@@H]1O2 (mixture of isomers) ?
A) class 0

Q) Is CC50 strictly under 30 µM for the entry Cc1cc2c(c(=O)o1)C=C1CC[C@H](C(C)CNCc3ccc(OCc4ccccc4)c(OCc4ccccc4)c3)C[C@@H]1O2 (mixture of isomers) ?
A) class 1

Q) Is CC50 strictly under 30 µM for the entry Cc1cc2c(c(=O)o1)C=C1CC[C@H](C(C)CNCc3ccc(C=O)cc3)C[C@@H]1O2 (mixture of isomers) ?
A) class 0

Q) Is CC50 strictly under 30 µM for the entry Cc1cc2c(c(=O)o1)C=C1CC[C@H](C(C)CNCc3ccc(Cl)cc3)C[C@@H]1O2 (mixture of isomers) ?
A) class 0

Q) Is CC50 strictly under 30 µM for the entry Cc1cc2c(c(=O)o1)C=C1CC[C@H](C(C)CNCc3ccc(C#N)cc3)C[C@@H]1O2 (mixture of isomers) ?
A) class 0

----------
# Tested on: ACAT
# measurement_notes: Therapeutic index, ratio of TD50 for human MC65 cells to IC50 for ACAT activity in human MC65 cells
# Assay type: cell-based
# measurement_context: read-out: TI
So I've got a bunch of molecules here, and I need their selectivity ratio values.

Q) For ACAT, give selectivity ratio of the listed molecule: Cc1cc2c(c(=O)o1)C=C1CC[C@H](C(C)CNCc3ccc(CO)cc3)C[C@@H]1O2 (mixture of isomers)
A) > 36

Q) For ACAT, give selectivity ratio of the listed molecule: Cc1cc2c(c(=O)o1)C=C1CC[C@H](C(C)Cn3cnc(N)c4ncnc3-4)C[C@@H]1O2 (stereo partly drawn)
A) 33

Q) For ACAT, give selectivity ratio of the listed molecule: Cc1cc2c(c(=O)o1)C=C1CC[C@H](C(C)CNCc3ccc(O)c(F)c3)C[C@@H]1O2 (mixture of isomers)
A) > 28

----------
So I've got a bunch of compounds here, and I need their CC50 values.
# measurement_notes: Cytotoxicity against human MC65 cells by MTT assay
# Format: cell-based
# measurement_context: read-out: TD50 (the source's name)
Unit µM implied. Number only.

Q) Write down CC50 measured for item Cc1cc2c(c(=O)o1)C=C1CC[C@H](C(C)CNCc3cc(O)cc4ccccc34)C[C@@H]1O2 (mixture of isomers)
A) 18.2

Q) Write down CC50 measured for item COc1ccc(CNCC(C)[C@H]2CCC3=Cc4c(cc(C)oc4=O)O[C@H]3C2)c2ccccc12 (some centres not stated)
A) 15.3

Q) Write down CC50 measured for item Cc1cc2c(c(=O)o1)C=C1CC[C@H](C(C)CNCc3ccc(O)cc3)C[C@@H]1O2 (mixture of isomers)
A) 37

Q) Write down CC50 measured for item Cc1cc2c(c(=O)o1)C=C1CC[C@H](C(C)CNC(=O)c3ccccc3O)C[C@@H]1O2 (some centres not stated)
A) 6.69

----------
# measurement_notes: Cytotoxicity against human MC65 cells by MTT assay
# Format: cell-based
# measurement_context: read-out: TD50 (the source's name)
So I've got a bunch of compounds here, and I need their CC50 values.
Unit µM implied. Number only.

Q) Write down CC50 measured for item Cc1cc2c(c(=O)o1)C=C1CC[C@H](C(C)Cn3cnc(N)c4ncnc3-4)C[C@@H]1O2 (some centres undefined)
A) 39

Q) Write down CC50 measured for item Cc1cc2c(c(=O)o1)C=C1CC[C@H](C(C)CNCc3ccc(N(C)C)cc3)C[C@@H]1O2 (mixture of isomers)
A) 38.2

----------
So I've got a bunch of compounds here, and I need their CC50 values.
# measurement_notes: Cytotoxicity against human MC65 cells by MTT assay
# Assay type: cell-based
# measurement_context: read-out: TD50 (the source's name)

Q) Write down CC50 measured for item Cc1cc2c(c(=O)o1)C=C1CC[C@H](C(C)CNCc3ccc(O)c(F)c3)C[C@@H]1O2 (mixture of isomers)
A) > 50 µM

Q) Write down CC50 measured for item COc1cc(CNCC(C)[C@H]2CCC3=Cc4c(cc(C)oc4=O)O[C@H]3C2)cc(OC)c1O (mixture of isomers)
A) > 50 µM

Q) Write down CC50 measured for item CC(=O)Oc1ccccc1C(=O)NCC(C)[C@H]1CCC2=Cc3c(cc(C)oc3=O)O[C@H]2C1 (mixture of isomers)
A) 8.35 µM

----------
# measurement_notes: Induction of ABCA1 mRNA expression in human MC65 cells after 24 hrs
# Type: functional, cell-based
# measurement_context: MC65, 24 h
So I've got a bunch of compounds here, and I need their pEC50 values.
The meaning of pEC50 here: minus log10 of the concentration in molar units.

Q) Write down pEC50 measured for item Cc1cc2c(c(=O)o1)C=C1CC[C@H](C(C)CNCc3ccc(CO)cc3)C[C@@H]1O2 (mixture of isomers)
A) 5.60

Q) Write down pEC50 measured for item Cc1cc2c(c(=O)o1)C=C1CC[C@H](C(C)CNCc3ccc(O)c(F)c3)C[C@@H]1O2 (mixture of isomers)
A) 5.66

Q) Write down pEC50 measured for item Cc1cc2c(c(=O)o1)C=C1CC[C@H](C(C)CNCc3ccc(O)c4ccccc34)C[C@@H]1O2 (mixture of isomers)
A) 5.89

Q) Write down pEC50 measured for item Cc1cc2c(c(=O)o1)C=C1CC[C@H](C(C)CNCc3ccc(O)cc3)C[C@@H]1O2 (mixture of isomers)
A) 5.96

Q) Write down pEC50 measured for item Cc1cc2c(c(=O)o1)C=C1CC[C@H](C(C)Cn3cnc(N)c4ncnc3-4)C[C@@H]1O2 (stereo not given in full)
A) 6.05

----------
So I've got a bunch of compounds here, and I need their IC50 values.
# target_desc: Sterol O-acyltransferase 1 (Homo sapiens)
# Sequence (P35610 whole entry): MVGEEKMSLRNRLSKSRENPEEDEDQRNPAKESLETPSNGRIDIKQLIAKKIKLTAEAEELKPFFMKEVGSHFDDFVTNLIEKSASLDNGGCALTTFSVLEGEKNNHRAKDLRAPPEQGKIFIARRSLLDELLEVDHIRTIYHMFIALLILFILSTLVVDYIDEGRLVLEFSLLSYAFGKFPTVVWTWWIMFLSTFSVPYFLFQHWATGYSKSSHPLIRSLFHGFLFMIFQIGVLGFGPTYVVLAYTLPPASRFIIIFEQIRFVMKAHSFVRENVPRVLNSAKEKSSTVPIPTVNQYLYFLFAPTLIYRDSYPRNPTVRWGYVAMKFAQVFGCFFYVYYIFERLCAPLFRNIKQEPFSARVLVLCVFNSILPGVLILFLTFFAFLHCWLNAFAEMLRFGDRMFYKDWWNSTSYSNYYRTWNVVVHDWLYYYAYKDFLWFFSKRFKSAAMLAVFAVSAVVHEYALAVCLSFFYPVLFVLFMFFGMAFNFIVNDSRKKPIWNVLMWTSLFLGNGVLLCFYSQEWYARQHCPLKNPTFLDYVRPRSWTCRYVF
# measurement_notes: Inhibition of ACAT activity in human MC65 cells using NBD-cholesterol staining after 24 hrs by fluorescence assay
Unit µM implied. Number only.

Q) Write down IC50 measured for item Cc1cc2c(c(=O)o1)C=C1CC[C@H](C(C)Cn3cnc(N)c4ncnc3-4)C[C@@H]1O2 (stereo partly drawn)
A) 1.2

Q) Write down IC50 measured for item Cc1cc2c(c(=O)o1)C=C1CC[C@H](C(C)CNCc3ccc(O)c(F)c3)C[C@@H]1O2 (mixture of isomers)
A) 1.8

Q) Write down IC50 measured for item Cc1cc2c(c(=O)o1)C=C1CC[C@H](C(C)CNCc3ccc(CO)cc3)C[C@@H]1O2 (mixture of isomers)
A) 1.4
